Hello, the source for this data is patent US20210155644A1, in case you need it.

- Test system: adenovirus type 6 (ADV6)
- Assay Procedure: Evaluation of anti-adenovirus activity: CRL-11516 cells infected with ADV6, anti-hexon staining, count of stained cells
- Format: cell-based
- Condition Details: Human mastadenovirus C, 48 h, CRL-11516 cells infected with ADV6, 48 hours culture, concentration reducing dark brown-stained cells by 50%; read-out: Anti-AdV activity EC50
pEC50: −log10 of the molar value.
Each entry below lists one item and its recorded pEC50 value.
Measured Attribute: pEC50

Compound	Recorded Value
CC(C)OC(=O)[C@H](C)N[P@](=O)(OC[C@@H]1C=C[C@H](n2cnc3c(OC4CCC4)nc(N)nc32)C1)Oc1ccccc1	6.00 to 7.00
COC(=O)[C@H](C)NP(=O)(OC[C@@H]1C=C[C@H](n2cnc3c(Cl)nc(N)nc32)C1)Oc1ccc(Cl)cc1 (stereo partly drawn)	> 8.00
CC(C)OC(=O)[C@H](C)NP(=O)(OC[C@@H]1C=C[C@H](n2cnc3c(Cl)nc(N)nc32)C1)Oc1ccc(Cl)cc1 (stereo partly drawn)	7.00 to 8.00
